Below, each of the binders is paired with its reported % activity relative to M3K1 value.
system under test: T1, purified recombinant IFNAR-1 extracellular fragment (human, UniProt P17181 28-436)
T1 construct: extracellular domain; also called soluble IFNAR-1; soluble IFNAR
T1 sequence (looked up): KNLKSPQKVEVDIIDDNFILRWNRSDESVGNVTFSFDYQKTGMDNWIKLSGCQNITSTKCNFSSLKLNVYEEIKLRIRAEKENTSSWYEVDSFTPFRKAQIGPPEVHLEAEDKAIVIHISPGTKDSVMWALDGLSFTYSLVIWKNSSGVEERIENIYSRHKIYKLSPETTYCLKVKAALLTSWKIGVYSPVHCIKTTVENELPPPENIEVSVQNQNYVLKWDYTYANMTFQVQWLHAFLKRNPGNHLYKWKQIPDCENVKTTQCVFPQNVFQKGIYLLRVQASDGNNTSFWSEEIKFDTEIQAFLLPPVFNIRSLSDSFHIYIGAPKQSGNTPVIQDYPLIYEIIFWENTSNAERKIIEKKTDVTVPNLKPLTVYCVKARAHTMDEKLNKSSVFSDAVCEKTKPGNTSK
method summary: Biacore, maximal association on IFNAR-1 relative to M3K1
Entry rule: numbers only, all in %.

Examples with answers:
M3-4 (X = A) heavy chain with K1 light chain (antibody, V domains shown, Position counted within VH CDR3; also called M3-4 A) VH: EVQLLESGGGLVQPGGSLRLSCAFSGFTLSTSGMGIGWVRQAPGKGLEWVAHIWWDDDKYYNPSLKSRFTISRDTSKNTVYLQMNSLRAEDTAVYYCARNYYAYDAWFDYWGQGTLVTVS VL: DIQMTQSPSSLSASVGDRVTITCSASSSINSNHLHWYQQKPGKAPKLLIYRTSILASGVPSRFSGSGSGTSFTLTISSLQPEDFATYYCQQGSNIPFTFGQGTKVEIK
107
M3K1 (antibody, V domains shown, also called heavy chain M3 with light chain K1) VH: EVQLLESGGGLVQPGGSLRLSCAFSGFTLSTSGMGIGWVRQAPGKGLEWVAHIWWDDDKYYNPSLKSRFTISRDTSKNTVYLQMNSLRAEDTAVYYCARNYYPYDAWFDYWGQGTLVTVS VL: DIQMTQSPSSLSASVGDRVTITCSASSSINSNHLHWYQQKPGKAPKLLIYRTSILASGVPSRFSGSGSGTSFTLTISSLQPEDFATYYCQQGSNIPFTFGQGTKVEIKR
100
M3-4 (X = D) heavy chain with K1 light chain (antibody, V domains shown, Position counted within VH CDR3; also called M3-4 D) VH: EVQLLESGGGLVQPGGSLRLSCAFSGFTLSTSGMGIGWVRQAPGKGLEWVAHIWWDDDKYYNPSLKSRFTISRDTSKNTVYLQMNSLRAEDTAVYYCARNYYDYDAWFDYWGQGTLVTVS VL: DIQMTQSPSSLSASVGDRVTITCSASSSINSNHLHWYQQKPGKAPKLLIYRTSILASGVPSRFSGSGSGTSFTLTISSLQPEDFATYYCQQGSNIPFTFGQGTKVEIK
100

// next item, % activity relative to M3K1 requested
Reported % activity relative to M3K1 of M3-4 (X = M) heavy chain with K1 light chain (antibody, V domains shown, Position counted within VH CDR3; also called M3-4 M) VH: EVQLLESGGGLVQPGGSLRLSCAFSGFTLSTSGMGIGWVRQAPGKGLEWVAHIWWDDDKYYNPSLKSRFTISRDTSKNTVYLQMNSLRAEDTAVYYCARNYYMYDAWFDYWGQGTLVTVS VL: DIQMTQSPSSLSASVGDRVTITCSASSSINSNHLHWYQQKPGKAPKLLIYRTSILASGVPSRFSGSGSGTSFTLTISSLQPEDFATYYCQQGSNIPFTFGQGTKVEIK : 101
